Entries and their LogP values follow.
# ASSAY_NAME: Measurement of LogP values by HPLC on reversed phase columns (EEC directive 79/831 Annex V.A8)
# Type: physicochemical
Marks after values point to notes of the source that are not given here.
QUANTITY: LogP

[[record]]
compound = "Nc1nsc(C(=O)NCCc2ccc(F)cc2)c1Cl [I-966]"
value = "2.13[a]"

[[record]]
compound = "COc1ccc(Nc2nsc(C(=O)NCc3ccccc3F)c2Cl)cc1 [I-060]"
value = "3.46[a]"

[[record]]
compound = "Nc1nsc(C(=O)NCc2ccc(Oc3ccccc3)cc2)c1Cl [I-227]"
value = "2.94[a]"

[[record]]
compound = "C[C@H]1CCCC[C@H]1CNC(=O)c1snc(N)c1I (relative stereo) [I-1541]"
value = "2.67[a]"

[[record]]
compound = "Nc1nsc(C(=S)NCc2ccccc2F)c1Cl [I-1021]"
value = "2.73[a]"

[[record]]
compound = "Nc1nsc(C(=O)NC2CCCCC2)c1Br [I-841]"
value = "2.11[a]"

[[record]]
compound = "COc1cc(F)ccc1CNC(=O)c1snc(NC(=O)C(F)(F)F)c1Cl [I-819]"
value = "2.72[a]"

[[record]]
compound = "O=CNc1nsc(C(=O)NCc2ccc(F)cc2F)c1Cl [I-467]"
value = "1.89[a]"

[[record]]
compound = "CC(C)CN(C(=O)c1snc(N)c1Cl)C1CC1 [I-902]"
value = "2.25[a]"

[[record]]
compound = "COc1ccc(CNc2nsc(C(=O)NCc3ccc(C#N)cc3)c2Cl)cc1 [I-1555]"
value = "3.23[a]"

[[record]]
compound = "Nc1cc(C(=O)NCc2ccc(F)cc2F)sn1 [I-031]"
value = "1.56[a]"


---

# ASSAY_NAME: Measurement of LogP values by HPLC on reversed phase columns (EEC directive 79/831 Annex V.A8)
# Type: physicochemical
Marks after values point to notes of the source that are not given here.
// LogP lookup, one value per entry
QUANTITY: LogP

[[record]]
compound = "Nc1cc(C(=O)N(Cc2c(Cl)cccc2Cl)C2CC2)sn1"
value = "2.53[a]"

[[record]]
compound = "O=C(NCC1CCCCC1)c1snc(N(Cc2ccccc2)Cc2ccccc2)c1Br"
value = "6.25[a]"

[[record]]
compound = "CC(NC(=O)c1snc(N)c1Cl)C1CCCCC1 (stereo not drawn)"
value = "2.84[a]"

[[record]]
compound = "Cc1c(N)nsc1C(=O)NCc1cc(F)c(F)cc1F"
value = "1.64[a]"

[[record]]
compound = "COc1ccc(CNc2nsc(C(=O)NCc3cc(OC)cc(OC)c3)c2Cl)cc1"
value = "3.41[a]"

[[record]]
compound = "COc1ccc(CNc2nsc(C(=O)NCCc3ccccn3)c2Cl)cc1"
value = "1.52[a]"

[[record]]
compound = "COc1ccc(CNc2nsc(C(=O)NCc3cccnc3OC)c2Cl)cc1"
value = "3.13[a]"

[[record]]
compound = "C[C@H](NC(=O)c1cc(N)ns1)C1CCCCC1"
value = "2.09[a]"

[[record]]
compound = "COc1ccc(CNC(=O)c2snc(NCc3ccc(OC)cc3)c2Cl)cc1"
value = "3.46[a]"

[[record]]
compound = "COc1c(F)ccc(CNC(=O)c2snc(N)c2Cl)c1F"
value = "2.12[a]"

[[record]]
compound = "COc1ccc(CNc2nsc(C(=O)NCc3ccc(C4CC4)cc3)c2C2CC2)cc1"
value = "3.94[a]"

[[record]]
compound = "Nc1nsc(C(=O)NCc2cccc(Cl)c2Cl)c1Cl"
value = "2.49[a]"

[[record]]
compound = "Nc1nsc(C(=O)NC2CCCC3CCCCC32)c1Cl (stereo not drawn) [I-808]"
value = "3.33[a]"

[[record]]
compound = "O=C(NCc1ccc(F)cc1F)c1cc(NC(=O)C(F)(F)F)ns1"
value = "2.58[a]"

[[record]]
compound = "Cc1c(N)nsc1C(=O)NCc1ccc(F)c(F)c1F"
value = "1.68[a]"

[[record]]
compound = "CC(C)(C)OC(=O)Nc1nsc(C(=O)NCC2CCCCC2Cl)c1Cl (stereo not drawn) [I-1581]"
value = "3.56[a]"

[[record]]
compound = "COc1ccc(CNc2nsc(C(=O)NCc3ccn(C)n3)c2Cl)cc1"
value = "2.39[a]"

[[record]]
compound = "O=C(c1cc(NCc2ccccc2)ns1)N(Cc1cc(Cl)ccc1Br)C1CC1"
value = "4.51[a]"

[[record]]
compound = "COc1ccc(CNc2nsc(C(=O)NCC3CCC(C)CC3)c2Cl)cc1 (stereo not drawn)"
value = "4.56[a]"

[[record]]
compound = "COc1ccc(CNc2nsc(C(=O)NC(C)Cc3ccco3)c2Cl)cc1 (stereo not drawn)"
value = "3.55[a]"

[[record]]
compound = "COc1ccc(CNc2nsc(C(=O)NC3CCc4ccccc43)c2Cl)cc1 (stereo not drawn)"
value = "4.04[a]"


---

# ASSAY_NAME: Measurement of LogP values by HPLC on reversed phase columns (EEC directive 79/831 Annex V.A8)
# Assay type: physicochemical
Marks after values point to notes of the source that are not given here.
QUANTITY: LogP

[[record]]
smiles = "Cc1c(N)nsc1C(=O)NCc1c(F)cccc1F"
value = "1.49[a]"

[[record]]
smiles = "COc1ccc(CNc2nsc(C(=O)NCC3=CCCCC3)c2Cl)cc1"
value = "4.02[a]"

[[record]]
smiles = "Cc1c(N)nsc1C(=O)NCc1ccc(F)cc1F"
value = "1.64[a]"

[[record]]
smiles = "Nc1nsc(C(=O)N(Cc2ccc(F)cc2F)C2CC2)c1Cl"
value = "2.62[a]"

[[record]]
smiles = "COc1ccc(CNc2nsc(C(=O)NCc3ccc(Br)cc3)c2Cl)cc1"
value = "4.01[a]"

[[record]]
smiles = "Nc1cc(C(=O)N(Cc2c(F)cccc2Cl)C2CC2)sn1"
value = "2.28[a]"

[[record]]
smiles = "O=C(NCc1ccccc1F)c1snc(N(Cc2ccccc2)Cc2ccccc2)c1-c1ccc(F)cc1"
value = "5.45[a]"

[[record]]
smiles = "Nc1nsc(C(=O)N(Cc2cc(Cl)ccc2F)C2CC2)c1Cl"
value = "2.86[a]"

[[record]]
smiles = "COc1ccc(CNc2nsc(C(=O)Nc3ccc(Cl)cc3Cl)c2Cl)cc1"
value = "5.22[a]"

[[record]]
smiles = "Nc1nsc(C(=O)NCc2cc(Cl)ccc2C(F)(F)F)c1Cl"
value = "2.88[a]"


---

# ASSAY_NAME: Measurement of LogP values by HPLC on reversed phase columns (EEC directive 79/831 Annex V.A8)
# Assay type: physicochemical
Marks after values point to notes of the source that are not given here.
QUANTITY: LogP

[[record]]
molecule = "COc1ccc(CNc2nsc(C(=O)NCc3noc(C)n3)c2Cl)cc1 [I-1270]"
value = "2.47[a]"

[[record]]
molecule = "Nc1nsc(C(=O)NC2CC23CCCCC3)c1Cl (stereo not drawn) [I-1549]"
value = "2.54[a]"

[[record]]
molecule = "Nc1nsc(C(=O)NCc2ccccc2F)c1C1CC1 [I-361]"
value = "1.88[a]"

[[record]]
molecule = "Nc1nsc(C(=O)N(Cc2cc(Cl)ccc2Br)C2CC2)c1Cl [I-365]"
value = "3.29[a]"

[[record]]
molecule = "C[C@H](NC(=O)c1snc(N(Cc2ccccc2)Cc2ccccc2)c1C(F)F)C1CCCCC1 [I-263]"
value = "6.20[a]"

[[record]]
molecule = "COc1ccc(CNc2nsc(C(=O)NC3CCC4CCCC43)c2Cl)cc1 (stereo not drawn) [I-1346]"
value = "4.35[a]"

[[record]]
molecule = "COc1ccc(CNc2nsc(C(=O)NCCC3=CCCCC3)c2Cl)cc1 [I-1266]"
value = "4.44[a]"

[[record]]
molecule = "CCc1cccc(C)c1CN(C(=O)c1snc(N)c1Cl)C1CC1 [I-184]"
value = "3.35[a]"

[[record]]
molecule = "COc1ccc(CNc2nsc(C(=O)NC(C)(C)c3cccc(C(F)(F)F)c3)c2Cl)cc1 [I-1232]"
value = "4.44[a]"

[[record]]
molecule = "Nc1nsc(C(=O)N(Cc2c(Cl)cccc2C(F)(F)F)C2CC2)c1Cl [I-215]"
value = "3.19[a]"

[[record]]
molecule = "Cc1cc(C)c(CN(C(=O)c2snc(N)c2Cl)C2CC2)cc1C [I-151]"
value = "3.39[a]"

[[record]]
molecule = "C[C@H](NC(=O)c1snc(NC(=O)c2ccccc2)c1Cl)C1CCCCC1 [I-091]"
value = "3.64[a]"

[[record]]
molecule = "CC(C)(C)OC(=O)Nc1nsc(C(=O)NCC2CCCCC2Cl)c1Cl (stereo not drawn) [I-1571]"
value = "3.53[a]"

[[record]]
molecule = "CS(=O)(=O)N(c1nsc(C(=O)NCc2ccccc2F)c1Cl)S(C)(=O)=O [I-185]"
value = "2.80[a]"

[[record]]
molecule = "Cc1cccc(C)c1CN(C(=O)c1snc(N)c1Cl)C1CC1 [I-154]"
value = "3.02[a]"

[[record]]
molecule = "COc1ccc(CNc2nsc(C(=O)NC(c3cncnc3)C(C)C)c2Cl)cc1 (stereo not drawn) [I-1251]"
value = "2.73[a]"

[[record]]
molecule = "C[C@@H]1CCCC[C@H]1NC(=O)c1snc(N)c1Br (relative stereo) [I-838]"
value = "2.34[a]"

[[record]]
molecule = "Nc1nsc(C(=O)NCc2c(F)cccc2F)c1Cl [I-128]"
value = "1.81[a]"

[[record]]
molecule = "Nc1nsc(C(=O)NCc2ccccc2)c1Cl [I-004]"
value = "1.69[a]"

[[record]]
molecule = "Nc1cc(C(=O)NCc2cc(F)ccc2F)sn1 [I-030]"
value = "1.49[a]"

[[record]]
molecule = "Cc1c(N)nsc1C(=O)NCc1ccc(Cl)cc1F [I-159]"
value = "2.00[a]"

